Tested on: LB1047-RCC
Assay: cells
Assay type: functional, cell-based, Homo sapiens
Conditions: Homo sapiens, LB1047-RCC
Description: SANGER: Inhibition of human LB1047-RCC cell growth in a cell viability assay.
pIC50: −log10 of the molar value.
Reported Endpoint: pIC50

1) CC[C@H](CO)Nc1nc(NCc2ccccc2)c2ncn(C(C)C)c2n1	< 4.80
2) COc1cc(N2CCN(C)CC2)ccc1Nc1ncc2c(n1)N(C)c1ccccc1C(=O)N2C	< 5.10
3) CO[C@H]1C[C@@H]2CC[C@@H](C)[C@@](O)(O2)C(=O)C(=O)N2CCCC[C@H]2C(=O)O[C@H]([C@H](C)C[C@@H]2CC[C@@H](OC(=O)C(C)(CO)CO)[C@H](OC)C2)CC(=O)[C@H](C)/C=C(\C)[C@@H](O)[C@@H](OC)C(=O)[C@H](C)C[C@H](C)/C=C/C=C/C=C/1C	7.20

For each of the compounds below, note its pIC50.
1. Oc1ccc2ccccc2c1SSc1c(O)ccc2ccccc12
2. N[C@@H](CSC(c1ccccc1)(c1ccccc1)c1ccccc1)C(=O)O
3. N#Cc1c(O)c2c(-c3ccc(-c4ccccc4O)cc3)csc2[nH]c1=O
4. CCN(CC)CCCCNc1ncc2cc(-c3cc(OC)cc(OC)c3)c(NC(=O)NC(C)(C)C)nc2n1

Output:
1: < 4.49; 2: 5.59; 3: < 5.99; 4: < 5.70

---

System: PC-14;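 note: cell viability assay measuring inhibition of PC-14 cell growth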
Experiment: cells
Format: functional, cell-based, Homo sapiens
Conditions: Homo sapiens, PC-14
Description: SANGER: Inhibition of human PC-14 cell growth in a cell viability assay.
Reported Endpoint: IC50

1) CC1(C)CNc2cc(NC(=O)c3cccnc3NCc3ccncc3)ccc21 [MOTESANIB]	> 2 µM

For each of the compounds below, note its IC50.
1. Oc1ccc2ccccc2c1SSc1c(O)ccc2ccccc12
2. CCN(CC)CCCCNc1ncc2cc(-c3cc(OC)cc(OC)c3)c(NC(=O)NC(C)(C)C)nc2n1 [PD-173074]

Output:
> 32 µM
> 2 µM

For each of the compounds below, note its IC50.
1. CN(C)C(=N)NC(=N)N [METFORMIN]
2. Cn1cnc2c(F)c(Nc3ccc(Br)cc3Cl)c(C(=O)NOCCO)cc21 [SELUMETINIB]

Output:
1: 17600 µM; 2: > 4 µM

---

Tested on: ME-180;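 note: cell viability assay measuring growth inhibition of ME-180 cells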
Assay: cells
Type: functional, cell-based, Homo sapiens
Conditions: me-180
Description: SANGER: Inhibition of human ME-180 cell growth in a cell viability assay.
Reported Endpoint: pIC50
Answers are plain numbers, as −log10 of the molar value.

Input: Which pIC50 is reported for this sequence? CISPLATIN
Output: 4.26

---

System: NCI-H446;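 note: growth inhibition of NCI-H446 cells determined by a cell viability assay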
Assay: cells
Format: functional, cell-based, Homo sapiens
Settings: Homo sapiens, NCI-H446
Description: SANGER: Inhibition of human NCI-H446 cell growth in a cell viability assay.
pIC50: −log10 of the molar value.
Exercise: state measured pIC50 for each of the compounds provided.

1. Nc1ccn([C@@H]2O[C@H](CO)[C@@H](O)C2(F)F)c(=O)n1	6.57
2. CCC/C=C/C=C/C(=O)O[C@H]1/C(=C/C(=O)OC)C[C@H]2C[C@H]([C@@H](C)O)OC(=O)C[C@H](O)C[C@@H]3C[C@H](OC(C)=O)C(C)(C)[C@](O)(C[C@@H]4C/C(=C/C(=O)OC)C[C@H](/C=C/C(C)(C)[C@]1(O)O2)O4)O3	< 8.10
3. N[C@@H](CSC(c1ccccc1)(c1ccccc1)c1ccccc1)C(=O)O	5.59
4. CS(=O)(=O)c1ccc(C(=O)Nc2ccc(Cl)c(-c3ccccn3)c2)c(Cl)c1	< 5.00
5. O=C(O)c1ccc(-c2c[nH]c3ncc(-c4ccccc4)cc23)cc1C1CCCC1	< 4.80

For each of the compounds below, note its pIC50.
1. Cc1cc([N+](=O)[O-])ccc1NS(=O)(=O)c1cc(Cl)ccc1Cl
2. Oc1ccc2ccccc2c1SSc1c(O)ccc2ccccc12

Output:
1. < 4.49
2. < 4.49

---

Exercise: state measured IC50 for each of the sequences provided.
Tested on: RCC10RGB;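 note: growth inhibition of human RCC10RGB cells, read out by a cell viability assay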
Test: cells
Format: functional, cell-based, Homo sapiens
Details: rcc10rgb
Description: SANGER: Inhibition of human RCC10RGB cell growth in a cell viability assay.
Numbers only, in µM.

1) CISPLATIN	917

Next, consider the following sequence.
Input: Which IC50 is reported for this sequence? BLEOMYCIN
Output: 70.6

---

Test system: MFE-296
Test: SANGER: Inhibition of human MFE-296 cell growth in a cell viability assay.
Type: functional, cell-based
Settings: Homo sapiens, MFE-296
Exercise: state measured pIC50 for each of the compounds provided.
Answers are plain numbers, as −log10 of the molar value.

1. Nc1ccn([C@@H]2O[C@H](CO)[C@@H](O)C2(F)F)c(=O)n1	7.29

Next, consider the following compound.
Input: Which pIC50 is reported for this compound? O=C(O)c1ccc(-c2c[nH]c3ncc(-c4ccccc4)cc23)cc1C1CCCC1
Output: 4.95

---

Tested on: MDA-MB-468
Test: cells
Type: functional, cell-based, Homo sapiens
Settings: Homo sapiens, MDA-MB-468
Description: SANGER: Inhibition of human MDA-MB-468 cell growth in a cell viability assay.
pIC50: −log10 of the molar value.
Exercise: state measured pIC50 for each of the molecules provided.

Use these answered entries as a reference point.
1) C=C(c1ccc(C(=O)O)cc1)c1cc2c(cc1C)C(C)(C)CCC2(C)C	< 5.10
2) Oc1ccc2ccccc2c1SSc1c(O)ccc2ccccc12	< 4.49

Next, consider the following molecule.
Input: Which pIC50 is reported for this molecule? Cc1cc([N+](=O)[O-])ccc1NS(=O)(=O)c1cc(Cl)ccc1Cl
Output: 5.92

---

Test system: WSU-NHL;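 note: growth inhibition of human WSU-NHL cells, read out with a cell viability assay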
Test: cells
Assay type: functional, cell-based, Homo sapiens
Conditions: wsu-nhl
Description: SANGER: Inhibition of human WSU-NHL cell growth in a cell viability assay.
Reported Endpoint: IC50 (µM)
One number for each entry, in µM.

Input: Which IC50 is reported for this sequence? BLEOMYCIN
Output: 31.6

---

System: COLO-679
Assay: cells
Assay type: functional, cell-based, Homo sapiens
Conditions: Homo sapiens, COLO-679
Description: SANGER: Inhibition of human COLO-679 cell growth in a cell viability assay.
pIC50: −log10 of the molar value. Structures can show the parent of a compound that is named as a salt.
Reported Endpoint: pIC50

1) COC1=CC(c2cc3ccccc3[nH]2)=N/C1=C\c1[nH]c(C)cc1C [OBATOCLAX MESYLATE]	> 7.20

Next, consider the following molecule.
Input: Which pIC50 is reported for this molecule? CCN(CC)CCCCNc1ncc2cc(-c3cc(OC)cc(OC)c3)c(NC(=O)NC(C)(C)C)nc2n1
Output: < 5.70

---

System: HCC2218;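 note: cell viability assay read-out, with IC50 given as the concentration that inhibits growth of the cell line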
Assay: cells
Format: functional, cell-based, Homo sapiens
Details: Homo sapiens, HCC2218
Description: SANGER: Inhibition of human HCC2218 cell growth in a cell viability assay.
Exercise: state measured IC50 for each of the compounds provided.

Use these answered entries as a reference point.
1. COc1cccc2c1C(=O)c1c(O)c3c(c(O)c1C2=O)C[C@@](O)(C(=O)CO)C[C@@H]3O[C@H]1C[C@H](N)[C@H](O)[C@H](C)O1 [DOXORUBICIN]	0.182 µM
2. COc1cc2ncn(-c3cc(OCc4ccccc4C(F)(F)F)c(C(N)=O)s3)c2cc1OC [GW843682X]	> 0.256 µM
3. OCCCNc1cc(-c2ccnc(Nc3cccc(Cl)c3)n2)ccn1	> 0.256 µM

For each of the compounds below, note its IC50.
1. N[C@@H](CSC(c1ccccc1)(c1ccccc1)c1ccccc1)C(=O)O [S-TRITYL-L-CYSTEINE]
2. CO[C@H]1C[C@@H]2CC[C@@H](C)[C@@](O)(O2)C(=O)C(=O)N2CCCC[C@H]2C(=O)O[C@H]([C@H](C)C[C@@H]2CC[C@@H](OC(=O)C(C)(CO)CO)[C@H](OC)C2)CC(=O)[C@H](C)/C=C(\C)[C@@H](O)[C@@H](OC)C(=O)[C@H](C)C[C@H](C)/C=C/C=C/C=C/1C [TEMSIROLIMUS]
3. CN(C)C(=N)NC(=N)N [METFORMIN]

Output:
> 5.12 µM
> 0.2 µM
701 µM

---

Tested on: SW48
Assay: cells
Format: functional, cell-based, Homo sapiens
Details: Homo sapiens, SW48
Description: SANGER: Inhibition of human SW48 cell growth in a cell viability assay.
Where a name gives a salt, the structure may show the parent alone.
Reported Endpoint: pIC50
Give bare numbers, as −log10 of the molar value.

Use these answered entries as a reference point.
1) COC1=CC(c2cc3ccccc3[nH]2)=N/C1=C\c1[nH]c(C)cc1C [OBATOCLAX MESYLATE]	6.11
2) Oc1ccc2ccccc2c1SSc1c(O)ccc2ccccc12	4.66
3) Cc1cc([N+](=O)[O-])ccc1NS(=O)(=O)c1cc(Cl)ccc1Cl	5.61

Next, consider the following compound.
Input: Which pIC50 is reported for this compound? Nc1ccn([C@@H]2O[C@H](CO)[C@@H](O)C2(F)F)c(=O)n1
Output: 6.33

---

Exercise: state measured IC50 for each of the molecules provided.
Tested on: NCI-H1395;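 note: cell viability assay read-out quantifying reduced proliferation of human NCI-H1395 cells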
Assay: cells
Format: functional, cell-based, Homo sapiens
Conditions: Homo sapiens, NCI-H1395
Description: SANGER: Inhibition of human NCI-H1395 cell growth in a cell viability assay.

Use these answered entries as a reference point.
1) CN(C)C(=N)NC(=N)N [METFORMIN]	> 20000 µM
2) CCN(CC)CCNC(=O)c1c(C)[nH]c(/C=C2\C(=O)Nc3ccc(F)cc32)c1C [SUNITINIB]	> 8 µM
3) COc1cc2ncn(-c3cc(OCc4ccccc4S(C)(=O)=O)c(C#N)s3)c2cc1OC [GSK-319347A]	> 5 µM

For each of the molecules below, note its IC50.
1. O=C(O)c1ccc(-c2c[nH]c3ncc(-c4ccccc4)cc23)cc1C1CCCC1 [GSK-650394]
2. CC[C@H](CO)Nc1nc(NCc2ccccc2)c2ncn(C(C)C)c2n1 [SELICICLIB]
3. Cc1cn(-c2cc(NC(=O)c3ccc(C)c(Nc4nccc(-c5cccnc5)n4)c3)cc(C(F)(F)F)c2)cn1 [NILOTINIB]
4. C=C(c1ccc(C(=O)O)cc1)c1cc2c(cc1C)C(C)(C)CCC2(C)C [BEXAROTENE]
5. CC1(C)CNc2cc(NC(=O)c3cccnc3NCc3ccncc3)ccc21 [MOTESANIB]

Output:
1: > 16 µM; 2: > 16 µM; 3: > 2 µM; 4: > 8 µM; 5: > 2 µM
